Target: T1, full length cynomolgus BTLA expressed on Jurkat cells (cynomolgus monkey, UniProt Q7Z6A9 31-289 (human entry))
T1 construct: also called cynomolgus BTLA expressing cells
T1 chain: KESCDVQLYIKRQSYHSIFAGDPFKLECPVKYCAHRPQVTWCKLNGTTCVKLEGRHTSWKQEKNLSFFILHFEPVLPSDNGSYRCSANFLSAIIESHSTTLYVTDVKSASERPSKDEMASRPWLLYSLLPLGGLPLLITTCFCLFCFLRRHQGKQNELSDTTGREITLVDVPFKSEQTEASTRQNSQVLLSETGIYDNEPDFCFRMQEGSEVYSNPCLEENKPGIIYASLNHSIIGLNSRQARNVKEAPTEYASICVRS
Test: flow cytometry, BTLA Jurkat cells
Please go through the items and note down their EC50.
Give bare numbers, in nM.

Sample records with EC50:
| binder | EC50 / nM |
| --- | --- |
| Engineered humanised 3E8 (Variant B) (antibody, V domains shown) VH: QVQLVQSGAELKKPGASVKVSCKASGYTFTSYAIRWVRQATGQGLEWMGEIYPRSGNTYYAQKFQGRATLTADKSISTAYMELSSLRSEDTAVYFCARSGGASYTMDYWGQGTTVTVSS VL: ENVLTQSPATLSLSLGERATLSCSASSSVSSSYLHWYQQKPDQSPRPLIHRTSNLASGIPSRFSGSGSGTDYTLTISSLEAEDFAVYYCQQWSGYPFTFGSGTKLEIKR | 15.6 |
| Engineered humanised 6.2 (Variant C) (antibody, V domains shown) VH: EVQLVESGGGLVKPGGSLRLSCAASGFTLSSYGMSWVRQAPGKGLEWVASIRSDGQTYYPDSVKGRFTISRDNAKNTLYLQMSSLRAEDTAVYYCTRGGYYGSSPYYWGQGTTVTVSS VL: DIVMTQSPLSLPVTPGEPASISCKSSQSLLYSSNQKNYLAWYQQKPGQSPKLLIYWASTRESGVPDRFSGSGSGTDFTLKISRVEAEDVGVYYCQQYYNYLTFGGGTKVEIKR | 0.148 |
| 11.5.1 (antibody, V domains shown, mouse IgG1k hybridoma antibody) VH: EVQLQESGPSLVKPSQTLSLTCSVTGDSITSAYWNWIRKFPGNKLEYMGYISYSGSTYFNPSLKSRISITRNTSKNQYYLQLNSVTTEDTATYYCARSHYYGYYFDYWGHGTTLTVSS VL: DIVLTQSPASLAVSLGQRATISCRASETIDSYGDSLMHWYQQKAGQPPKLLIYRASNLESGIPARFSGSGSRTDFTLTINPVEADDVATYYCQQTDEDPYTFGGGTKLEIK | 0.0057 |

Next binder, EC50 to be filled in.
Q. Provide only the value of recorded EC50 for 2.8.6 (antibody, V domains shown, mouse IgG1k hybridoma antibody; also called clone 2.8.6) VH: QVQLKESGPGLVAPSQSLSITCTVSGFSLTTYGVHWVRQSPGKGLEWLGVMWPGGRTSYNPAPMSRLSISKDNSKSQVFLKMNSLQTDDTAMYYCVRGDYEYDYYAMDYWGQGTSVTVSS VL: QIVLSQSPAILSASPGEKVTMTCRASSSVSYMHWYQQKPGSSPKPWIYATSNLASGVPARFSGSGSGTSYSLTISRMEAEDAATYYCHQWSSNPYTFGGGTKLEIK
A. 0.16
